Tested target: human glucagon receptor (human) (UniProt P47871)
Sequence (P47871 26-477): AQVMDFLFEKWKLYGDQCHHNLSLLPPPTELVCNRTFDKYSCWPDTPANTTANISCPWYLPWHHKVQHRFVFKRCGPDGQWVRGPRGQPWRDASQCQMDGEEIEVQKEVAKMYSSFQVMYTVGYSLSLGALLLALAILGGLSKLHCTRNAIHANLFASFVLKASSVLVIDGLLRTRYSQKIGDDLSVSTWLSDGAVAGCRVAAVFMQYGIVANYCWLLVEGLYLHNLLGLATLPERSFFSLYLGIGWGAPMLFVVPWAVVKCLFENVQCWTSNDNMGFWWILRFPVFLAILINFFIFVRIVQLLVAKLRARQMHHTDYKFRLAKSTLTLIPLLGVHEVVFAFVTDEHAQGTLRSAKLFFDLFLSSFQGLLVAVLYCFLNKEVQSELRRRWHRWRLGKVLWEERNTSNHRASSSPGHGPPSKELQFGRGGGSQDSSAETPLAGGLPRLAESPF
Assay info: cell-based or functional assay
This section presents binders with their documented cAMP EC50 values.
Expressed in nM, but write only the number.

# example entries with known answers
{"Binder": "IP307 (Fc fusion) YSEGTFTSDVSSYMERQAIDEFIAWLLKQGAAAGGSGSTASSGSGSATGGGGAATHTCPPC", "cAMP EC50 [nM]": 4100}
{"Binder": "IP381 (Fc fusion) YSEGTFTSDYSKLLEEEAVRLFIEYLLAGGGGGGSGGGGSGGGGSGGGGSATHTCPPC", "cAMP EC50 [nM]": 18}

# query: cAMP EC50 of entry IP369 (Fc fusion) YSEGTFTSDYSKLLERQAIDEFIAHLLKGGGGGGGSGGGGSGGGGSGGGGSGGGGSGGGGSA 710

Similarly, IP315 (Fc fusion) YSEGTFISDYSSYLERQAIDEFIAWLLKGGAAAGGSGSTASSGSGSATGGGGAATHTCPPC ? 280

Try IP335 (Fc fusion) YSEGTFISDYSIAMDKIHQQDFVNWLLAQKGGGGGSGGGGSGGGGSGGGGSA next. 280

Also check IP308 (Fc fusion) YSEGTFISDYSIALAAAAAKDFVNWLLAGGGGGGGSGGGGSGGGGSGGGGSATHTCPPC 1500

Query IP339 (Fc fusion) YSEGTFTSDYSKLLEKEAQRLFIEWLLAGGGGGGGSGGGGSGGGGSGGGGSGGGGSGGGGSA next 23

Would you mind doing IP309 (Fc fusion) YSEGTFISDVSSYLERQAIDEFIAWLLKGGAAAGGSGSTASSGSGSATGGGGAATHTCPPC as well? 900
